Target: T1, human TGFβ1 (human, UniProt P01137 279-390)
T1 construct: also called TGFβ1 homodimer
T1 sequence (P01137 279-390 limits assumed): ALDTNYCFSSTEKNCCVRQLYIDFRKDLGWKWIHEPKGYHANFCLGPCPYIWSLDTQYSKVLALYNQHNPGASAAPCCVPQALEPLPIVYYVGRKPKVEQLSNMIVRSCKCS
Assay: Biacore off-rate vs wt GC1008, 50 nM
Procedure: Plasmids encoding either the GC1008 heavy chain or light chain were used as a template in PCR-based mutagenesis reactions. […] Purified variant antibody samples were analyzed in duplicate on a Biacore® 3000 (GE Healthcare) at 50 nM concentrations, using the 100 RU level TGFβ1, 2, and 3 immobilized surfaces. […]
Catalogue of binders with associated kd var/kd wt

Binder	kd var/kd wt
D56F (antibody, V domains shown, GC1008 IgG4 variant) VH: QVQLVQSGAEVKKPGSSVKVSCKASGYTFSSNVISWVRQAPGQGLEWMGGVIPIVFIANYAQRFKGRVTITADESTSTTYMELSSLRSEDTAVYYCASTLGLVLDAMDYWGQGTLVTVSS VL: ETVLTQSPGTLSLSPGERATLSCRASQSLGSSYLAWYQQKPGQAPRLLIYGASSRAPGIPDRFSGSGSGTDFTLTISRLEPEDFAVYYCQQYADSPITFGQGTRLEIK	2.3
S30R (antibody, V domains shown, GC1008 IgG4 variant) VH: QVQLVQSGAEVKKPGSSVKVSCKASGYTFRSNVISWVRQAPGQGLEWMGGVIPIVDIANYAQRFKGRVTITADESTSTTYMELSSLRSEDTAVYYCASTLGLVLDAMDYWGQGTLVTVSS VL: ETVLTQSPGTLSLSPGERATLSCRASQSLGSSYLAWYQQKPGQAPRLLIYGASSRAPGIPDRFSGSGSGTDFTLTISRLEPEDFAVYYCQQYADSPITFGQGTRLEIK	1.9
